tested on: SN12C; test: NCI tumour cell line growth inhibition, 48 h
The source made the active and inactive calls. Rule as the data show it: active = GI50 up to about 1.1 µM and inactive = higher.
Outcomes: active, inactive

{"compound": "O=C1Sc2sc(=S)sc2SC1c1ccccc1 (stereo not drawn)", "qualitative_label": "inactive"}
{"compound": "COc1cc2c[n+](C)c3c4ccccc4ccc3c2cc1OC", "qualitative_label": "inactive"}
{"compound": "CCCCN1C(=O)CC2[C@@H]3CCc4cc(OC(C)=O)ccc4C3CC[C@]2(C)C1=O (stereo partly drawn)", "qualitative_label": "inactive"}
{"compound": "CN(C)CCSc1cccc(-c2cc(-c3cccc(SCCN(C)C)c3)nc(SCCN(C)C)n2)c1", "qualitative_label": "inactive"}
{"compound": "CC(=O)N1c2ccccc2N(C(C)=O)C1c1ccc(C2N(C(C)=O)c3ccccc3N2C(C)=O)[nH]1", "qualitative_label": "inactive"}
{"compound": "Nc1nc(N)c2nc(CNc3ccc(C(=O)NC(CCNC(=O)c4ccccc4C(=O)O)C(=O)O)cc3)cnc2n1 (stereo not drawn)", "qualitative_label": "active"}
{"compound": "COC(=O)CC1C2(C)C3=C(C)C(c4ccoc4)CC3OC2C2OC(=O)C3(C)C=CC(=O)C1(C)C23 (stereo not drawn)", "qualitative_label": "active"}
{"compound": "CC1=CC(=O)/C(=C/NC(N)=S)C(=O)O1", "qualitative_label": "inactive"}
{"compound": "C=CC(C)(C)C(=C)C(=O)N(C)c1ccccc1I", "qualitative_label": "inactive"}
{"compound": "O=c1ccn(COC(COCc2ccccc2)COCc2ccccc2)c(=O)[nH]1", "qualitative_label": "inactive"}
{"compound": "Cc1cc2c3c([nH]c2c2ccnc(C)c12)CCCC3", "qualitative_label": "inactive"}
{"compound": "Nc1cc(N2CCOCC2)nc(=O)n1-c1ccccc1", "qualitative_label": "inactive"}
{"compound": "COc1ccc2c(c1)N=C1CSC(c3cccc(Br)c3)N1C2 (stereo not drawn)", "qualitative_label": "inactive"}
{"compound": "CC(=O)Oc1cc2c(c3ncccc13)OC(C)(C)C2", "qualitative_label": "inactive"}
{"compound": "COc1c(CC(C)=O)ccc2c1C(=O)c1ccc(C=O)c(OC(C)=O)c1C2=O", "qualitative_label": "inactive"}
{"compound": "COC(=O)C1C(O)C(C)C(=O)C(C)/C=C\\C=C(C)C(=O)Nc2c(C)c(OC(C)=O)c3c(c2O)C(=O)C(C)=C2OCOC(=C23)C(C)=CC(C)(O)C(O)C(C)C1O (stereo not drawn)", "qualitative_label": "inactive"}
{"compound": "CSC(SC)=C1Sc2cccc(Cl)c2S1", "qualitative_label": "inactive"}
{"compound": "CCOP(=O)(OCC)c1cc2cc(O)ccc2oc1=O", "qualitative_label": "inactive"}
{"compound": "CN(CCNC(=O)c1cn(C)c2c1ccc1cc(Cl)c(Cl)cc12)CCNC(=O)c1cn(C)c2c1ccc1cc(Cl)c(Cl)cc12", "qualitative_label": "inactive"}
{"compound": "CC1OC2OC3C(OCC(O)C3O)OC(=O)[C@]34CCC(C)(C)CC3C3=CCC5[C@@]6(C)C[C@H](O)[C@H](OC7OC(CO)C(O)C(O)C7OC7OC(COC(=O)CC(C)(O)CC(=O)OC1C(O)C2O)C(O)C(O)C7O)[C@@](C)(CO)C6CC[C@@]5(C)[C@]3(C)CC4 (stereo partly drawn)", "qualitative_label": "inactive"}
{"compound": "O=C(C/N=C(\\CN(c1ccccc1)c1ccccc1)Oc1c(Cl)cc(Cl)cc1Cl)N1c2ccccc2Sc2ccccc21", "qualitative_label": "inactive"}
{"compound": "COc1ccc(NC=O)c(C(=O)CCNC(C)=O)c1", "qualitative_label": "inactive"}
{"compound": "CCCCCC(=O)N[C@H]1CCc2cc(OC)c(OC)c(OC)c2-c2ccc(SC)c(=O)cc21", "qualitative_label": "active"}
{"compound": "COC1OC(COS(=O)(=O)c2ccc(C)cc2)C(O)C(OS(=O)(=O)c2ccc(C)cc2)C1OS(=O)(=O)c1ccc(C)cc1 (stereo not drawn)", "qualitative_label": "inactive"}
{"compound": "COC(=O)CCC(C)[C@H]1CCC2C3C(C[C@H](OC(C)=O)[C@@]21C)[C@@]1(C)CCC2(C[C@H]1C[C@H]3OC(C)=O)OOC1(CCCCC1)OO2 (stereo partly drawn)", "qualitative_label": "inactive"}
{"compound": "CC(C)C(Cl)CC/C(CBr)=C(\\Cl)CCl (stereo not drawn)", "qualitative_label": "inactive"}
{"compound": "CN(C)C=[N+]=[N-]", "qualitative_label": "inactive"}
{"compound": "CN(C)Cc1cc(C(=O)/C=C/c2c(Cl)cccc2Cl)cc(CN(C)C)c1O", "qualitative_label": "inactive"}
{"compound": "CN1C(=O)N(C)C2(CCN(CCCCCCF)CC2)C1=O", "qualitative_label": "inactive"}
{"compound": "O=C1NC(=O)[C@@]2(CC[C@@H](O)C2)c2ccncc21", "qualitative_label": "inactive"}
{"compound": "O=C(O)C1CCCCN1c1ccccc1[N+](=O)[O-] (stereo not drawn)", "qualitative_label": "inactive"}
{"compound": "CC(=O)[C@H]1CC[C@H]2[C@@H]3CCC4=CC(=O)CC[C@]4(C)[C@H]3CC[C@]12C", "qualitative_label": "inactive"}
{"compound": "C#CC[C@@H]1C(=O)N(Cc2ccc(OC)cc2)[C@@H](C(C)C)C(=O)N1Cc1ccc(OC)cc1", "qualitative_label": "inactive"}

* * *

test system: SW-620; test: NCI tumour cell line growth inhibition, 48 h
Calls of active or inactive are those of the source. Rule as the data show it: active = GI50 up to about 1.1 µM and inactive = higher. Residues, ends and D or L forms follow the SMILES beside them. *: point of attachment. X38 = O=C(c1ccc(-c2ccc(Cl)cc2Cl)o1)*
Form field: GI50 (one value per entry).
measured_endpoint: GI50

{"compound": "CC(=O)[C@H]1CC[C@H]2[C@@H]3CCC4=CC(=O)CC[C@]4(C)[C@H]3CC[C@]12C", "measured_endpoint": "GI50", "data_value": "31 µM (inactive)"}
{"compound": "COC(=O)c1c(C)cccc1/C=C1/Cc2c(C)cccc2C1=O", "measured_endpoint": "GI50", "data_value": "> 100 µM (inactive)"}
{"compound": "O=C(O)CNS(=O)(=O)c1ccc(NC(=O)c2cccc([N+](=O)[O-])c2)cc1", "measured_endpoint": "GI50", "data_value": "> 100 µM (inactive)"}
{"compound": "C=C(CC)C[C@@H]1C[C@]2(C(=O)OC)c3[nH]c4ccccc4c3CCN2C1=O", "measured_endpoint": "GI50", "data_value": "16.4 µM (inactive)"}
{"compound": "COc1cc2c(cc1OC)C1Cc3cc(OC)c(OC)cc3C(C2)N1C", "measured_endpoint": "GI50", "data_value": "> 100 µM (inactive)"}
{"compound": "Cc1ccc(/N=N/c2c(O)c(C(=O)O)cc3ccccc23)cc1C", "measured_endpoint": "GI50", "data_value": "> 100 µM (inactive)"}
{"compound": "COC(=O)C(CC(C)C)NC(=O)C(Cc1ccccc1)NC(=O)C1CCCN1C(=O)C(CO)NC(=O)c1ccc(-c2ccc(Cl)cc2Cl)o1 (stereo not drawn) (X38-SPFL-OMe; configuration not given here)", "measured_endpoint": "GI50", "data_value": "30.7 µM (inactive)"}
{"compound": "COc1ccc(NS(=O)(=O)c2ccc3ncn(NS(=O)(=O)c4ccc(I)cc4)c(=O)c3c2)cc1", "measured_endpoint": "GI50", "data_value": "> 100 µM (inactive)"}
{"compound": "CN(C)Cc1cc(/N=N/c2ccccc2)cc(CN(C)C)c1O", "measured_endpoint": "GI50", "data_value": "> 100 µM (inactive)"}
{"compound": "COC(=O)CNC(=O)/C=C/[C@H](O[Si](C)(C)C(C)(C)C)[C@H](/C=C/C(=O)NCC(=O)OC)O[Si](C)(C)C(C)(C)C", "measured_endpoint": "GI50", "data_value": "> 25 µM (inactive)"}
{"compound": "O=C(/C=N/c1ccccc1S)c1ccco1", "measured_endpoint": "GI50", "data_value": "14.7 µM (inactive)"}
{"compound": "COC(=O)C1C(C)N1C (stereo not drawn)", "measured_endpoint": "GI50", "data_value": "> 100 µM (inactive)"}
{"compound": "Cc1nc([N+](=O)[O-])cn1CC(=N)N", "measured_endpoint": "GI50", "data_value": "> 100 µM (inactive)"}

* * *

system: A498; experiment: NCI tumour cell line growth inhibition, 48 h
Calls of active or inactive are those of the source. Cut-off read from the data, not from the text of the source: active = GI50 up to about 1.1 µM and inactive = higher.
measured_endpoint: GI50

{"molecule": "CC(=O)Oc1ccccc1-c1cc2ccccc2oc1=O", "tested_target": "A498", "measured_endpoint": "GI50", "data_value": "> 100 µM (inactive)"}
{"molecule": "Cc1cc(C)nc(NS(=O)(=O)c2ccc(Nc3nncc(=O)n3N)cc2)n1", "tested_target": "A498", "measured_endpoint": "GI50", "data_value": "45.9 µM (inactive)"}
{"molecule": "CCCCNC(=O)CCN(C(=O)O)S(=O)(=O)c1ccc(NC(=O)c2ccccc2)cc1", "tested_target": "A498", "measured_endpoint": "GI50", "data_value": "> 100 µM (inactive)"}
{"molecule": "COC(=O)CCC(NC(=S)N/N=C(\\C)c1ccccn1)C(=O)OC (centres undefined)", "tested_target": "A498", "measured_endpoint": "GI50", "data_value": "> 100 µM (inactive)"}
